# tgt: Melanin-concentrating hormone receptor 1 (Homo sapiens, UniProt Q99705)
# Sequence (Q99705 whole entry): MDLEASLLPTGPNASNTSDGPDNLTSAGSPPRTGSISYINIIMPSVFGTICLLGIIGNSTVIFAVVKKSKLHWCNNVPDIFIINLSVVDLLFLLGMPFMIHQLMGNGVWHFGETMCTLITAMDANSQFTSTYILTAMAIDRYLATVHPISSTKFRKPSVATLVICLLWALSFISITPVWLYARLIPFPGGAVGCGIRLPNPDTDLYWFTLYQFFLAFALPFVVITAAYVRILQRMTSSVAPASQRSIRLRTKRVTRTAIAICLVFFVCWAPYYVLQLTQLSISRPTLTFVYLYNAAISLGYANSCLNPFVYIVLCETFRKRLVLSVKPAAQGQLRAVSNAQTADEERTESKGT
# measurement-protocol: Inhibition of calcium influx into cells expressing hMCH-R1 in FLIPR assay
# Assay type: functional
measure-name: Kb
Note: state the figure and append the unit.

Q. Fill blank: measured Kb of the molecule CN(C)CCN(C(=O)Nc1ccc(F)c(Cl)c1)c1ccc(-c2cccc(C#N)c2)cc1 is ____.
A. 3.1 nM

Q. Fill blank: measured Kb of the molecule N#Cc1cccc(-c2ccc(N(CCN3CC[C@@H](O)C3)C(=O)Nc3ccc(F)c(C(F)(F)F)c3)cc2)c1 is ____.
A. 8 nM

Q. Fill blank: measured Kb of the molecule CNCCN(C(=O)Nc1ccc(F)c(Cl)c1)c1ccc(-c2cccc(C#N)c2)cc1 is ____.
A. 6.2 nM

Q. Fill blank: measured Kb of the molecule N#Cc1cccc(-c2ccc(N(CCN3CC[C@@H](O)C3)C(=O)Nc3ccc(C(F)(F)F)c(F)c3)cc2)c1 is ____.
A. 2 nM

Where do these numbers come from? They come from ChEMBL document CHEMBL1140323.
